target_system: Human IL-17AF (Homo sapiens, UniProt Q16552+Q96PD4)
Sequence (Q16552 24-155): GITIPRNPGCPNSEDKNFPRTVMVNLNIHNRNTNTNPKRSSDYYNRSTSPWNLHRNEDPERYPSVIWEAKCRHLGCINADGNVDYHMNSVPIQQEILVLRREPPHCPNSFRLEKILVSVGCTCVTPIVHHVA
Sequence (Q96PD4 31-163): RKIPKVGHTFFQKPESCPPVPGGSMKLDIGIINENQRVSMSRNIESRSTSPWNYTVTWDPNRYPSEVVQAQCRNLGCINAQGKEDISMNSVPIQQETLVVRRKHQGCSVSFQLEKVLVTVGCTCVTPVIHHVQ
protocol_details: IL-17AF ELISA (competitive ELISA, IL-17AF/IL-17Ra receptor-ligand binding)
experimental_conditions: human IL-17AF coated plate, human IL-17Ra, read-out: IC50, inhibitory activity of compounds on human IL-17AF
pIC50: −log10 of the molar value.
test_readout: pIC50

Consider the following illustrative entries.
# compound, test_readout, result
data = [
    ("Cc1[nH]nc2c1-c1cc(F)c(NC(=O)[C@@H](NC(=O)c3ccnn3CCOCC(F)(F)F)C(C3CC3)C3CC3)cc1COCC2", "pIC50", "6.30 to 7.00"),
    ("Cc1[nH]nc2c1-c1ccc(NC(=O)[C@@H](NC(=O)c3ccnn3C(C)C)C(C3CC3)C3CC3)cc1CN(C)CC2", "pIC50", "6.30 to 7.00"),
    ("Cc1[nH]nc2c1-c1cnc(NC(=O)[C@@H](NC(=O)c3ccnn3C(C)C3CC3)C(C3CC3)C3CC3)cc1COCC2 (single isomer, unassigned) [compound 188a]", "pIC50", "6.30 to 7.00"),
]

Exercise: Need pIC50 of Cc1[nH]nc2c1-c1cc(F)c(NC(=O)[C@@H](NC(=O)c3ccnn3C(C)C)C(C3CC3)C3CC3)cc1CN(CC1CC1)C(=O)C2 , thanks.
Solution: ≥ 7.00

Exercise: Need pIC50 of CCn1nccc1C(=O)N[C@H](C(=O)Nc1cc2c(cc1F)-c1c(n[nH]c1C)CC(C)OC2)C(C1CC1)C1CC1 (single isomer, unassigned) [compound 119a] , thanks.
Solution: 6.30 to 7.00

Exercise: Need pIC50 of Cc1[nH]nc2c1-c1cnc(NC(=O)[C@@H](NC(=O)c3ccnn3C(C)C)C(C3CC3)C3CC3)cc1CN(CC(C)(F)F)CC2 , thanks.
Solution: ≥ 7.00
